- Test system: LXRa:RXRa (NR concentration 270 nM, RXRa partner concentration 90 nM)
- Method summary: PBM binding z-score (relative to random genomic background probes); higher = stronger binding; sequences stand for … in GC…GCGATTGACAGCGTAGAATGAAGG
Result type: PBM binding z-score
Just the number, please, no unit attached.

Exam item: Report PBM binding z-score for CCAGCCAGGTGAAAGGTAACTCAGTCTGGTACGC please.
Marked response: 0.156

Exam item: Report PBM binding z-score for CAAACTAGCTCAAAGGTCAAAGTCGAGCCAACCA please.
Marked response: 5.85

Exam item: Report PBM binding z-score for ATATGTAGGTTATCGGGTCATTAAGTTTGCGCAT please.
Marked response: 2.85

Exam item: Report PBM binding z-score for CCGACTGGGGGAGAAAGGTTACCATACCATCCGG please.
Marked response: 1.61

Exam item: Report PBM binding z-score for ACTAGCAGGTCAAGTTTGGGTCACTCAAACAAAG please.
Marked response: 4.79

Exam item: Report PBM binding z-score for CTCGCAAGGTCGTGCTCAGGTGAGTATACCAAAC please.
Marked response: 1.71

Exam item: Report PBM binding z-score for TCGAGTAGGTTAGGGGCCTTCAGAATGGCGTCGA please.
Marked response: -0.323

Exam item: Report PBM binding z-score for CCGACAGGGGCATAAGGTTACCATAAGCCAGCCC please.
Marked response: 2.05

Exam item: Report PBM binding z-score for CAAACTAGGTCACGAAAGGTCAAGGTCGAATGAC please.
Marked response: 7.82

Exam item: Report PBM binding z-score for CTCGAAGGGTCGTGCTCAGGTGAGTATACCAAAC please.
Marked response: 1.45

Exam item: Report PBM binding z-score for TTACCAAGGTGAGCTGAGGTCGTTGAACCAACTC please.
Marked response: 1.48

Exam item: Report PBM binding z-score for AGAACTAGGGCAATGAGTTGATAGCACGGGTGGC please.
Marked response: -0.254

* * *

- System: LXRb homodimer (NR concentration 270 nM)
- Method summary: PBM binding z-score (relative to random genomic background probes); higher = stronger binding; sequences stand for … in GC…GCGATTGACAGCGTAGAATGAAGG
Kindly supply the reported PBM binding z-score values for the records listed here.
Just the number, please, no unit attached.

Exam item: Report PBM binding z-score for TTACCCAGGTGAGCTGAGGTCGTTGATCCAACTC please.
Marked response: -1.12

Exam item: Report PBM binding z-score for ATCGAAAGGTAGAGGTGAGTATAGAGAAAGGGAA please.
Marked response: 0.482

Exam item: Report PBM binding z-score for CCTAGTTGGTCAGGAGGTCACACATCGGATATGA please.
Marked response: 0.972

Exam item: Report PBM binding z-score for GCTATTAGTTGACAGGGCAACCGAATGATTCTCG please.
Marked response: -0.293

Exam item: Report PBM binding z-score for CGCGAAAGGTCGTGCTCAGGTGAGTATACCAAAC please.
Marked response: -0.0921

Exam item: Report PBM binding z-score for TCGAGTAGGTTATCAATGGGGCATTCAGCTTTCT please.
Marked response: -0.428

Exam item: Report PBM binding z-score for TGAATGAGGTTATGAGATCAGGGAACGTTGCAAA please.
Marked response: -0.381

Exam item: Report PBM binding z-score for CCCACTGGGCCAAGGTCATTGATCAGTCAAAGCA please.
Marked response: -0.562

Exam item: Report PBM binding z-score for TCTTATAGATCAAAGGTTAAGAAAGCCGAAGCCT please.
Marked response: -0.12

Exam item: Report PBM binding z-score for CAAACTAGGTTAAAGGTCAAAGTCGAGCCAACCA please.
Marked response: 2.67

Exam item: Report PBM binding z-score for GCGAATGGGGCAAAGCAGGTTACCATAAGGTTGG please.
Marked response: -0.239

Exam item: Report PBM binding z-score for CCTACTGGGCCTCGAAAGGTCATTGATTCAGTGA please.
Marked response: 0.187

Exam item: Report PBM binding z-score for CGTCCAAGGTCAAGGTCCGTGAAAGAGACTCGAA please.
Marked response: 0.0848

Exam item: Report PBM binding z-score for TCATATGGGTAATACAGGTGAAAGTCGGCATCTA please.
Marked response: -0.138

Exam item: Report PBM binding z-score for CGTCCAAGGTCGTAGGAGGTCAGTGAAGACAGAT please.
Marked response: -0.833

Exam item: Report PBM binding z-score for CCTATTGGGCCAAAGGTCATTGATTCCAATGCTC please.
Marked response: 1.02

Exam item: Report PBM binding z-score for CGTCCAAGCTCAAAGGTCAGTGAAGAGATGACGG please.
Marked response: 0.14

Exam item: Report PBM binding z-score for TGAATGACGTTATAAGATCAGGGAACGTTGCAAA please.
Marked response: -0.245

Exam item: Report PBM binding z-score for CGTCCAAGGTCAGCCGGTCAGTGAAAGCGACGTG please.
Marked response: -0.165

Exam item: Report PBM binding z-score for CCGACTGGGTCATAAGGTTACCATAAGCCAGCCC please.
Marked response: -0.614

Exam item: Report PBM binding z-score for TCATGTAGGTAAAAGGTGAAAGTCGGTGTGGTAA please.
Marked response: 0.274

Exam item: Report PBM binding z-score for ATCGCTAGGTAACAAGTTCAGTGAAAGAGAGGAC please.
Marked response: -0.328

Exam item: Report PBM binding z-score for CGTCCAAGGCCAAAGGTCAGTGAAGAGATGACGG please.
Marked response: -0.142

Exam item: Report PBM binding z-score for CCTACAGGGCCACGAAAGGTCATTGATTCAGTGA please.
Marked response: 0.292

Exam item: Report PBM binding z-score for TCGAGTAGGTTACCACTGGGGCATTCAGCTTTCT please.
Marked response: -0.76

Exam item: Report PBM binding z-score for CCTATTAGTTGACCATAGGGGCAACCGAAGCTCG please.
Marked response: 0.195

* * *

- Test system: PPARg DBDmut:RXRa IVT, anti-PPARg (DBD mutation: PPARg1 K132A/R137A, NR concentration 270 nM, RXRa partner concentration 90 nM)
- Method summary: PBM binding z-score (relative to random genomic background probes); higher = stronger binding; sequences stand for … in GC…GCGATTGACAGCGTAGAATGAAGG
Result type: PBM binding z-score

Exam item: Report PBM binding z-score for ACTAGTTGGTGAGCTGAGGTCACACACAATTCGG please.
Marked response: 0.121

Exam item: Report PBM binding z-score for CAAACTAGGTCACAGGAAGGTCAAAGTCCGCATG please.
Marked response: 3.59

Exam item: Report PBM binding z-score for GCTAGGAGGCCATTTGGGTCACTCAATGACGGGC please.
Marked response: -0.861

Exam item: Report PBM binding z-score for GGAACGAGGGCATTCGAGTTGATAGCGTGGCGAT please.
Marked response: -0.574

Exam item: Report PBM binding z-score for CCGGGTAGGTTATGGGGCATTCAGGCAACGGTGA please.
Marked response: -0.642

Exam item: Report PBM binding z-score for TAGCCTAGGTCATGCAGGCCAGTATAGTGTCGGC please.
Marked response: 0.61

* * *

- Tested on: THRa:RXRa (NR concentration 90 nM, RXRa partner concentration 90 nM)
- Method summary: PBM binding z-score (relative to random genomic background probes); higher = stronger binding; sequences stand for … in GC…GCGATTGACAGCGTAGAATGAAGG
Please enter T where PBM binding z-score is greater than or equal to 2, and F where it is lower.

Exam item: Does PBM binding z-score meet or surpass 2 for GTACCAAGGTGAATAGGTCGTGGATGAGTAGGCG ?
Marked response: F

Exam item: Does PBM binding z-score meet or surpass 2 for ACTATTAGTTGACTTAGGGCAAGCGATACGACGC ?
Marked response: F

Exam item: Does PBM binding z-score meet or surpass 2 for CCTACTGGGCCAAGGTTATTGATCAGTCAAAGCA ?
Marked response: F

Exam item: Does PBM binding z-score meet or surpass 2 for TAGCCTAGGTCATTCAGGGGCCAGTTTAGAAAGC ?
Marked response: T

Exam item: Does PBM binding z-score meet or surpass 2 for CCGACTGGGGCACAAAGGTTACCATACCATCCGG ?
Marked response: F

Exam item: Does PBM binding z-score meet or surpass 2 for CCTCGGAGGACTACAGGAGGTCAGAGCTGCCAGA ?
Marked response: T

Exam item: Does PBM binding z-score meet or surpass 2 for CTACCAAGGTGAACAAGGTCGTCGATTACTATTC ?
Marked response: T

Exam item: Does PBM binding z-score meet or surpass 2 for CCTACTAGGCCATCAGGTCATTGATATCAACGTT ?
Marked response: T

Exam item: Does PBM binding z-score meet or surpass 2 for CGAACTAGGTCTGAACAGGACAGTGAAGGATGAT ?
Marked response: F

Exam item: Does PBM binding z-score meet or surpass 2 for CCTACTGGGCCACCAGGTCATTGATATCAACGTT ?
Marked response: T

Exam item: Does PBM binding z-score meet or surpass 2 for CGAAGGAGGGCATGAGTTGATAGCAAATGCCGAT ?
Marked response: F

Exam item: Does PBM binding z-score meet or surpass 2 for TCATATAGGTGAATGCTAGGTGAAAGTCCGATCT ?
Marked response: T
